- Tested on: BT-549 breast
- test-protocol: NCI tumour cell line growth inhibition, 48 h
Tick t if TGI is 50 µM or greater. Tick f if TGI is less than 50 µM.

- compound: "CC(C)(C)OC(=O)C1=C(C(=O)OC(C)(C)C)SC2(S1)C(C(=O)OC(C)(C)C)=C(C(=O)OC(C)(C)C)Sc1c2ssc1=O"
  label-class: "t"
- compound: "C=C1C(=O)OC2/C=C(\\C)C(O)CC(O)C(C)(O)CC(OC(=O)/C(C)=C/C)C12 (stereo not given)"
  label-class: "t"
- compound: "Cc1cc(=O)oc2cc(OC(=O)Nc3ccc(Cl)c(Cl)c3)ccc12"
  label-class: "t"
- compound: "CC(C)(C)NC(NC(C)(C)C)=C(C(Cl)=C(Cl)Cl)[N+](=O)[O-]"
  label-class: "t"
- compound: "C(CCc1nnc2c(n1)CCCC2)Cc1nnc2c(n1)CCCC2"
  label-class: "t"
- compound: "O=C1Oc2ccccc2C(=O)/C1=C/N1C(=O)/C(=C/c2ccc([N+](=O)[O-])cc2)SC1=S"
  label-class: "f"
- compound: "Cc1ccc(S(=O)(=O)Oc2ccc3c4c(c(=O)oc3c2)CCCCC4)cc1"
  label-class: "t"
- compound: "COC(=O)C(NC(=O)CNC(=O)CSc1nnc(COc2ccc(Cl)cc2)n1-c1ccccc1)C(C)C (stereo not given)"
  label-class: "f"
- compound: "OCCSCCCSCCO"
  label-class: "t"

====

- System: OVCAR-4 ovarian
- test-protocol: NCI tumour cell line growth inhibition, 48 h
Reported TGI values are given for each entry in this list.

- molecule: "COc1ncc(-c2nc3c(n2C(C)C)[C@H](c2ccc(Cl)cc2)N(c2cc(Cl)cn(C)c2=O)C3=O)c(OC)n1"
  modifier: ">"
  TGI (µM): 100
- molecule: "O=[N+]([O-])CC(SCc1ccccc1)c1ccc2c(c1)OCO2 (configuration not stated)"
  modifier: "="
  TGI (µM): 27.1
- molecule: "COc1ccc(C2NCCc3c2[nH]c2ccccc32)cc1CN1CCN(c2ccc(F)cc2)CC1 (configuration not stated)"
  modifier: "="
  TGI (µM): 7.22
- molecule: "COc1ccc(C(=O)N2CCN(c3ccc4c(c3)OCC(=O)N4)CC2)cc1"
  modifier: ">"
  TGI (µM): 100
- molecule: "C=C(CNCCc1ccc(O)cc1)[C@@H]1CC[C@]2(CO)CC[C@]3(C)[C@H](CC[C@@H]4[C@@]5(C)CCC(=O)C(C)(C)[C@@H]5CC[C@]43C)[C@@H]12"
  modifier: "="
  TGI (µM): 3.12
- molecule: "Cc1ccc(S(=O)(=O)Oc2ccc3c4c(c(=O)oc3c2)CCCCC4)cc1"
  modifier: ">"
  TGI (µM): 100
- molecule: "COc1ccc(CNc2nc(NCc3ccc(OC)cc3)nc(Nc3ccccc3)n2)cc1"
  modifier: ">"
  TGI (µM): 100

====

- Tested on: MCF7 breast
- test-protocol: NCI tumour cell line growth inhibition, 48 h; in the data active = GI50 below about 0.43 µM; inactive = the rest
Possible outcomes: 1 for active, -1 for inactive

- smiles-code: "O=C1c2ccccc2S(=O)(=O)N1CSC(=S)N1CCCC1"
  label-class: -1
- smiles-code: "CCOC(=O)/C=C1\\SC(=Nc2ccc(C#N)cc2)N(CCN2C(=O)/C(=C/C(=O)OCC)SC2=Nc2ccc(C#N)cc2)C1=O"
  label-class: 1
- smiles-code: "O=C(Nc1cnn2ccc(N3CCC[C@@H]3c3cc(F)ccc3F)nc12)N1CC[C@H](O)C1"
  label-class: -1
- smiles-code: "COc1ccc2nc(NCCCNCCO)c3sc4ccc(F)cc4c(=O)c3c2c1"
  label-class: -1
- smiles-code: "COc1ccc(/C=C(/C(=O)N2CCCC2)c2cc(OC)c(OC)c(OC)c2)cc1N"
  label-class: -1

====

- Tested on: CAKI-1 renal
- test-protocol: NCI tumour cell line growth inhibition, 48 h; in the data active = GI50 below about 0.43 µM; inactive = the rest
Possible outcomes: active, inactive

- compound: "O=C1/C(=C/c2ccccc2)SC(=Nc2ccccc2)N1Nc1ccccc1"
  label-class: "inactive"
- compound: "CC(CN)[C@@H]1CC[C@]2(CO)CC[C@]3(C)[C@H](CC[C@@H]4[C@@]5(C)CCC(NCCO)C(C)(C)[C@@H]5CC[C@]43C)[C@@H]12 (some centres undefined)"
  label-class: "inactive"
- compound: "N#C/C(=C\\c1ccc(Br)cc1)n1nnc2cccc(F)c21"
  label-class: "inactive"
- compound: "CCC(=O)OC1CCn2c1nc1c2C(=O)C(C)=C(N2CC2)C1=O (centres undefined)"
  label-class: "active"

====

- Tested on: OVCAR-8 ovarian
- test-protocol: NCI tumour cell line growth inhibition, 48 h
value-type: TGI

- molecule: "[Cl-].[Rh+3].c1ccc(-c2ccnc3c2ccc2c(-c4ccccc4)ccnc23)cc1.c1ccc(-c2ccnc3c2ccc2c(-c4ccccc4)ccnc23)cc1.c1ccc(-c2ccnc3c2ccc2c(-c4ccccc4)ccnc23)cc1"
  subject-of-test: "OVCAR-8 ovarian"
  test-value: "> 100 µM"
- molecule: "O=C1c2cccnc2-c2nc(/C=C/c3ccccc3)cc3c2c1nc1ccccc13"
  subject-of-test: "OVCAR-8 ovarian"
  test-value: "> 30 µM"
- molecule: "COc1cccc(/C=C/C(=O)c2ccc(Cl)cc2Cl)c1OC"
  subject-of-test: "OVCAR-8 ovarian"
  test-value: "13.7 µM"
- molecule: "NC(=O)c1[nH]nc(C2OC(CO)C(O)C2O)c1O (centres undefined)"
  subject-of-test: "OVCAR-8 ovarian"
  test-value: "212 µM"
- molecule: "O=C1c2ccccc2S(=O)(=O)N1CSC(=S)N1CCCC1"
  subject-of-test: "OVCAR-8 ovarian"
  test-value: "> 100 µM"
- molecule: "CCSc1nc2sc(C)c(C)c2c(=O)n1-c1ccc(C(=O)O)cc1"
  subject-of-test: "OVCAR-8 ovarian"
  test-value: "> 100 µM"
- molecule: "COc1ccc(C2NCCc3c2[nH]c2ccccc32)cc1CN1CCN(c2ccc(F)cc2)CC1 (centres undefined)"
  subject-of-test: "OVCAR-8 ovarian"
  test-value: "3.95 µM"
- molecule: "CC1(C)OCC2OC3([C@H](O)CCO)OC(C)(C)OC3C2O1 (some centres undefined)"
  subject-of-test: "OVCAR-8 ovarian"
  test-value: "> 100 µM"
- molecule: "O=C(CC/C(C/C(=N/O)c1ccc(F)cc1)=N/O)N(Cc1ccccc1)Cc1ccccc1"
  subject-of-test: "OVCAR-8 ovarian"
  test-value: "> 100 µM"

====

- Test system: MDA-MB-231 breast
- test-protocol: NCI tumour cell line growth inhibition, 48 h; in the data active = GI50 below about 0.43 µM; inactive = the rest
Possible outcomes: T = active, F = inactive

- molecule: "O=C(Oc1ccc([N+](=O)[O-])cc1)N1CCN(Cc2cccc(Oc3ccccc3)c2)CC1"
  label-class: "F"
- molecule: "COc1c2ccccc2c(O)c2c(=O)c(C(=O)O)cn(C)c12"
  label-class: "F"
- molecule: "Cc1ccc(N=C2CSc3nnc(-c4csc5c4CCCC5)n3N2)cc1"
  label-class: "T"
- molecule: "COc1ncc(-c2nc3c(n2C(C)C)[C@H](c2ccc(Cl)cc2)N(c2cc(Cl)cn(C)c2=O)C3=O)c(OC)n1"
  label-class: "F"
- molecule: "COc1cc2c3c(n(CCCN4CCN(C)CC4)c(=O)c2cc1OC)-c1cc2c(cc1C3=O)OCO2"
  label-class: "F"
- molecule: "O=C1c2cccnc2-c2nc(/C=C/c3ccccc3)cc3c2c1nc1ccccc13"
  label-class: "F"
- molecule: "Nc1ccn([C@H]2C[C@@H](O)[C@@H](CO)S2)c(=O)n1"
  label-class: "F"
- molecule: "COC(=O)c1c2c(c(C)[n+]([O-])c1C)C(=O)C=C(NCc1cccc(OC)c1)C2=O"
  label-class: "T"
- molecule: "Cc1cc(O)c2c(c1)C(=O)c1cc(O)cc(O)c1C2=O"
  label-class: "F"
- molecule: "O=C1/C(=C/c2ccccc2)SC(=Nc2ccccc2)N1Nc1ccccc1"
  label-class: "F"
- molecule: "C=C1C(=O)O[C@H]2[C@H]1CC/C(COC(=O)C(=O)c1c[nH]c3ccc(OC)cc13)=C\\CC[C@@]1(C)O[C@@H]21"
  label-class: "F"
- molecule: "CC(C)(C)OC(=O)NCCCCCCCCn1c2c(c3ccccc3c1=O)C(=O)c1ccccc1-2"
  label-class: "F"
- molecule: "N#CC1C(=N)Cc2ccccc2-c2ccccc21 (configuration not stated)"
  label-class: "F"
- molecule: "O=C(Nc1cnn2ccc(N3CCC[C@@H]3c3cc(F)ccc3F)nc12)N1CC[C@H](O)C1"
  label-class: "F"
- molecule: "CCOC(=O)/C=C1\\SC(=Nc2ccc(C#N)cc2)N(CCN2C(=O)/C(=C/C(=O)OCC)SC2=Nc2ccc(C#N)cc2)C1=O"
  label-class: "F"
- molecule: "CN1CCN(CC(=O)Nc2ccc3ncnc(Nc4ccc(Oc5cccc(C(F)(F)F)c5)c(Cl)c4)c3c2)CC1"
  label-class: "F"
- molecule: "COc1ccc2nc(NCCCNCCO)c3sc4ccc(F)cc4c(=O)c3c2c1"
  label-class: "F"
